Tested on: human red blood cells (RBCs)
Assay type: cell-based
Reported Conditions: red cells of human
Observed Property: log10 HC50 (log10 of the value in µg/mL)
Note: values are log10 of HC50 expressed in µg/mL.

Looking for the measured log10 HC50 of CCCCCCCCCCCCCC(=O)N[C@@H](CCCCN)C(N)=O [Peptide 1M, C14-K-NH2] , can you help?
2.68

Looking for the measured log10 HC50 of CCCCCCCCCCCCCCCC(=O)N[C@@H](CCCCN)C(=O)N[C@@H](CCCCN)C(=O)N[C@@H](CCCCN)C(N)=O [Peptide 3P, C16-KKK-NH2] , can you help?
2.13

Looking for the measured log10 HC50 of CCCCCCCCCCCCCCCC(=O)N[C@@H](CCCCN)C(=O)N[C@@H](CCCCN)C(N)=O [Peptide 2P, C16-KK-NH2] , can you help?
1.74

Looking for the measured log10 HC50 of CCCCCCCCCCCCCCCCCC(=O)N[C@@H](CCCCN)C(=O)N[C@@H](CCCCN)C(N)=O [Peptide 2S, C18-KK-NH2] , can you help?
1.34

Looking for the measured log10 HC50 of CCCCCCCCCCCCCCCC(=O)N[C@@H](CCCC[N+](C)(C)C)C(=O)N[C@@H](CCCC[N+](C)(C)C)C(N)=O [Peptide 2Pq, C16-K(Me3)^+K(Me3)^+-NH2] , can you help?
2.12

---

Tested on: human red blood cells (RBCs)
Assay type: cell-based
Reported Conditions: red cells of human
Where a SMILES comes first, the peptide text is derived from it. [ ]: non-standard residue; d: D form. The star is where a group is joined. Lys(Me3) = C[N+](C)(C)CCCC[C@H](N)C(=O)O; Stearoyl = CCCCCCCCCCCCCCCCCC(=O)*; Myristoyl = CCCCCCCCCCCCCC(=O)*
Please assign F whenever HC50 is at or above 90 µg/mL, and T whenever it is below.

Problem: For the molecule CCCCCCCCCCCCCCCCCC(=O)N[C@@H](CCCC[N+](C)(C)C)C(=O)N[C@@H](CCCC[N+](C)(C)C)C(N)=O [Peptide 2Sq, C18-K(Me3)^+K(Me3)^+-NH2] , is HC50 under 90 µg/mL?
T

Problem: For the molecule CCCCCCCCCCCCCC(=O)N[C@@H](CCCC[N+](C)(C)C)C(=O)N[C@@H](CCCC[N+](C)(C)C)C(=O)N[C@@H](CCCC[N+](C)(C)C)C(N)=O [Peptide 3Mq, C14-K(Me3)^+K(Me3)^+K(Me3)^+-NH2] , is HC50 under 90 µg/mL?
F

Problem: For the molecule CCCCCCCCCCCCCCCCCC(=O)N[C@@H](CCCCN)C(=O)N[C@@H](CCCCN)C(=O)N[C@@H](CCCCN)C(=O)N[C@@H](CCCCN)C(N)=O [Peptide 4S, C18-KKKK-NH2] (Stearoyl-KKKK-NH2) , is HC50 under 90 µg/mL?
T

Problem: For the molecule CCCCCCCCCCCCCCCC(=O)N[C@@H](CCCC[N+](C)(C)C)C(=O)N[C@@H](CCCC[N+](C)(C)C)C(=O)N[C@@H](CCCC[N+](C)(C)C)C(N)=O [Peptide 3Pq, C16-K(Me3)^+K(Me3)^+K(Me3)^+-NH2] , is HC50 under 90 µg/mL?
F

Problem: For the molecule CCCCCCCCCCCCCC(=O)N[C@@H](CCCC[N+](C)(C)C)C(=O)N[C@@H](CCCC[N+](C)(C)C)C(=O)N[C@@H](CCCC[N+](C)(C)C)C(=O)N[C@@H](CCCC[N+](C)(C)C)C(N)=O [Peptide 4Mq, C14-K(Me3)^+K(Me3)^+K(Me3)^+K(Me3)^+-NH2] (Myristoyl-[Lys(Me3)][Lys(Me3)][Lys(Me3)][Lys(Me3)]-NH2) , is HC50 under 90 µg/mL?
F

Problem: For the molecule CCCCCCCCCCCCCC(=O)N[C@@H](CCCCN)C(=O)N[C@@H](CCCCN)C(=O)N[C@@H](CCCCN)C(=O)N[C@@H](CCCCN)C(N)=O [Peptide 4M, C14-KKKK-NH2] (Myristoyl-KKKK-NH2) , is HC50 under 90 µg/mL?
F

Problem: For the molecule CCCCCCCCCCCCCC(=O)N[C@@H](CCCCN)C(=O)N[C@@H](CCCCN)C(N)=O [Peptide 2M, C14-KK-NH2] , is HC50 under 90 µg/mL?
F

Problem: For the molecule CCCCCCCCCCCCCCCCCC(=O)N[C@@H](CCCC[N+](C)(C)C)C(=O)N[C@@H](CCCC[N+](C)(C)C)C(=O)N[C@@H](CCCC[N+](C)(C)C)C(N)=O [Peptide 3Sq, C18-K(Me3)^+K(Me3)^+K(Me3)^+-NH2] , is HC50 under 90 µg/mL?
F

---

Tested on: E. faecium ATCC 700221
Type: cell-based, Enterococcus faecium
Reported Conditions: ATCC 700221, 18 h
Where a SMILES comes first, the peptide text is derived from it. [ ]: non-standard residue; d: D form. The star is where a group is joined. Lys(Me3) = C[N+](C)(C)CCCC[C@H](N)C(=O)O; Stearoyl = CCCCCCCCCCCCCCCCCC(=O)*; Palmitoyl = CCCCCCCCCCCCCCCC(=O)*; Myristoyl = CCCCCCCCCCCCCC(=O)*
For each record, write down the corresponding MIC.
// note: answer is a bare numeric in µg/mL

Looking for the measured MIC of CCCCCCCCCCCCCCCCCC(=O)N[C@@H](CCCCN)C(=O)N[C@@H](CCCCN)C(=O)N[C@@H](CCCCN)C(=O)N[C@@H](CCCCN)C(N)=O [Peptide 4S, C18-KKKK-NH2] (Stearoyl-KKKK-NH2) , can you help?
4

Looking for the measured MIC of CCCCCCCCCCCCCCCCCC(=O)N[C@@H](CCCC[N+](C)(C)C)C(=O)N[C@@H](CCCC[N+](C)(C)C)C(N)=O [Peptide 2Sq, C18-K(Me3)^+K(Me3)^+-NH2] , can you help?
16

Looking for the measured MIC of CCCCCCCCCCCCCCCCCC(=O)N[C@@H](CCCC[N+](C)(C)C)C(=O)N[C@@H](CCCC[N+](C)(C)C)C(=O)N[C@@H](CCCC[N+](C)(C)C)C(N)=O [Peptide 3Sq, C18-K(Me3)^+K(Me3)^+K(Me3)^+-NH2] , can you help?
16

Looking for the measured MIC of CCCCCCCCCCCCCCCC(=O)N[C@@H](CCCCN)C(=O)N[C@@H](CCCCN)C(=O)N[C@@H](CCCCN)C(=O)N[C@@H](CCCCN)C(N)=O [Peptide 4P, C16-KKKK-NH2] (Palmitoyl-KKKK-NH2) , can you help?
4

Looking for the measured MIC of CCCCCCCCCCCCCCCC(=O)N[C@@H](CCCC[N+](C)(C)C)C(=O)N[C@@H](CCCC[N+](C)(C)C)C(=O)N[C@@H](CCCC[N+](C)(C)C)C(=O)N[C@@H](CCCC[N+](C)(C)C)C(N)=O [Peptide 4Pq, C16-K(Me3)^+K(Me3)^+K(Me3)^+K(Me3)^+-NH2] (Palmitoyl-[Lys(Me3)][Lys(Me3)][Lys(Me3)][Lys(Me3)]-NH2) , can you help?
32

Looking for the measured MIC of CCCCCCCCCCCCCC(=O)N[C@@H](CCCC[N+](C)(C)C)C(=O)N[C@@H](CCCC[N+](C)(C)C)C(=O)N[C@@H](CCCC[N+](C)(C)C)C(N)=O [Peptide 3Mq, C14-K(Me3)^+K(Me3)^+K(Me3)^+-NH2] , can you help?
256

Looking for the measured MIC of CCCCCCCCCCCCCCCC(=O)N[C@@H](CCCCN)C(=O)N[C@@H](CCCCN)C(N)=O [Peptide 2P, C16-KK-NH2] , can you help?
8

Looking for the measured MIC of CCCCCCCCCCCCCC(=O)N[C@@H](CCCCN)C(=O)N[C@@H](CCCCN)C(=O)N[C@@H](CCCCN)C(N)=O [Peptide 3M, C14-KKK-NH2] , can you help?
32

Looking for the measured MIC of CCCCCCCCCCCCCC(=O)N[C@@H](CCCCN)C(=O)N[C@@H](CCCCN)C(N)=O [Peptide 2M, C14-KK-NH2] , can you help?
32

Looking for the measured MIC of CCCCCCCCCCCCCC(=O)N[C@@H](CCCCN)C(=O)N[C@@H](CCCCN)C(=O)N[C@@H](CCCCN)C(=O)N[C@@H](CCCCN)C(N)=O [Peptide 4M, C14-KKKK-NH2] (Myristoyl-KKKK-NH2) , can you help?
16

---

System: E. faecium ATCC 700221
Format: cell-based, Enterococcus faecium
Reported Conditions: ATCC 700221, 18 h
Where a SMILES comes first, the peptide text is derived from it. [ ]: non-standard residue; d: D form. The star is where a group is joined. Lys(Me3) = C[N+](C)(C)CCCC[C@H](N)C(=O)O; Stearoyl = CCCCCCCCCCCCCCCCCC(=O)*; Myristoyl = CCCCCCCCCCCCCC(=O)*
For each record, write down the corresponding MIC.
// note: answer is a bare numeric in µg/mL

Looking for the measured MIC of CCCCCCCCCCCCCC(=O)N[C@@H](CCCC[N+](C)(C)C)C(=O)N[C@@H](CCCC[N+](C)(C)C)C(N)=O [Peptide 2Mq, C14-K(Me3)^+K(Me3)^+-NH2] , can you help?
128

Looking for the measured MIC of CCCCCCCCCCCCCC(=O)N[C@@H](CCCC[N+](C)(C)C)C(=O)N[C@@H](CCCC[N+](C)(C)C)C(=O)N[C@@H](CCCC[N+](C)(C)C)C(=O)N[C@@H](CCCC[N+](C)(C)C)C(N)=O [Peptide 4Mq, C14-K(Me3)^+K(Me3)^+K(Me3)^+K(Me3)^+-NH2] (Myristoyl-[Lys(Me3)][Lys(Me3)][Lys(Me3)][Lys(Me3)]-NH2) , can you help?
128

Looking for the measured MIC of CCCCCCCCCCCCCCCCCC(=O)N[C@@H](CCCCN)C(=O)N[C@@H](CCCCN)C(N)=O [Peptide 2S, C18-KK-NH2] , can you help?
4

Looking for the measured MIC of CCCCCCCCCCCCCCCC(=O)N[C@@H](CCCC[N+](C)(C)C)C(=O)N[C@@H](CCCC[N+](C)(C)C)C(N)=O [Peptide 2Pq, C16-K(Me3)^+K(Me3)^+-NH2] , can you help?
16

Looking for the measured MIC of CCCCCCCCCCCCCCCCCC(=O)N[C@@H](CCCC[N+](C)(C)C)C(=O)N[C@@H](CCCC[N+](C)(C)C)C(=O)N[C@@H](CCCC[N+](C)(C)C)C(=O)N[C@@H](CCCC[N+](C)(C)C)C(N)=O [Peptide 4Sq, C18-K(Me3)^+K(Me3)^+K(Me3)^+K(Me3)^+-NH2] (Stearoyl-[Lys(Me3)][Lys(Me3)][Lys(Me3)][Lys(Me3)]-NH2) , can you help?
16

Looking for the measured MIC of CCCCCCCCCCCCCC(=O)N[C@@H](CCCCN)C(N)=O [Peptide 1M, C14-K-NH2] , can you help?
16

Measured values drawn from paper PMC10687119 for this set.
